src = patent US20250074980A1

- target of assay: T1, His-tagged CEACAM1 (human, UniProt P13688 35-428)
- T1 construct: 45 kDa SPR analyte; also called CEACAM1-HIS; CEACAM1 analyte
- T1 sequence: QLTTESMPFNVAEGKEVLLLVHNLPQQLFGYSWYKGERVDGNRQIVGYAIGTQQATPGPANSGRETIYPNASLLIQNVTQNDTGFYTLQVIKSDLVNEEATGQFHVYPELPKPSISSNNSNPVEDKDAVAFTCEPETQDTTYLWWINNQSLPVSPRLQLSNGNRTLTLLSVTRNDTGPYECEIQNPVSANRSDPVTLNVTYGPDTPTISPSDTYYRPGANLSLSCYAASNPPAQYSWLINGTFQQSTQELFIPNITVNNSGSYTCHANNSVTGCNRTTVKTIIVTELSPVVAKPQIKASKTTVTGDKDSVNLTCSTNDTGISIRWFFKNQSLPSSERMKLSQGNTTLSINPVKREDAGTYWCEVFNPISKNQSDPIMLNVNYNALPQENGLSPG
- assay notes: SPR single-cycle, supernatant IgG captured
measure: kon (M⁻¹ s⁻¹)
Kindly answer with a numeric value in M⁻¹ s⁻¹, unit omitted.

8H3_9B3/CP08F05 (antibody, IgG4, V domains shown, IgG4 (S241P), kappa) VH: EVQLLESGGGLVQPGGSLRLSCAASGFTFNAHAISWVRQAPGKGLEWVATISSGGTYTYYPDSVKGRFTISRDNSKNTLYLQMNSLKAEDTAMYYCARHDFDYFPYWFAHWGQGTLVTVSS VL: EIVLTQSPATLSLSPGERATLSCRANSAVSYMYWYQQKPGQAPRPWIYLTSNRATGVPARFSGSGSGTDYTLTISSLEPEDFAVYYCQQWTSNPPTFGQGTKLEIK ... 90000

Let us move to another entry and its kon.
Name the reported kon value associated with the binder 9B3_9E5_8H3/Vκ8 S29A (antibody, IgG4, V domains shown, IgG4 (S241P), kappa) VH: EVQLLESGGGLVQPGGSLRLSCAASGFTFNAHAISWVRQAPGKGLEWVATISSGGTYTYYPDSVKGRFTISRDNSKNTLYLQMNSLKAEDTAMYYCARHGFDYFPYWFAHWGQGTLVTVSS VL: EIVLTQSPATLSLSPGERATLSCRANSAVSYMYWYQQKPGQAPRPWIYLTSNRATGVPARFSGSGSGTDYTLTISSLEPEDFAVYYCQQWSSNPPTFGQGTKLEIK
95000
